Items are presented alongside their recorded polymerase ribozyme fitness (log ratio).
B1: TPR t1 (parent)
chain: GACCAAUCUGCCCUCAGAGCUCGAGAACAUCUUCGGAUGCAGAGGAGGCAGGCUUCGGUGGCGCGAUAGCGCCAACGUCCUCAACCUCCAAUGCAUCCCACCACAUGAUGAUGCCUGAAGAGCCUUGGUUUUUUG

Variants of: B1
protocolText: polymerase ribozyme fitness, log enrichment relative to wild type (log ratio); higher = more active; in vitro selection for triplet polymerase activity

[
  {
    "variantSpec": "A50G G120A",
    "polymerase ribozyme fitness (log ratio)": 0.658
  },
  {
    "variantSpec": "A2G U59C C85U C124A",
    "polymerase ribozyme fitness (log ratio)": 0.474
  },
  {
    "variantSpec": "C12A G25U A27C A37C U38A C70G C82U C115U",
    "polymerase ribozyme fitness (log ratio)": -6.08
  },
  {
    "variantSpec": "G60U G110U",
    "polymerase ribozyme fitness (log ratio)": -0.553
  },
  {
    "variantSpec": "A2G G39U C115A",
    "polymerase ribozyme fitness (log ratio)": -1.93
  },
  {
    "variantSpec": "A2C C13G A16U",
    "polymerase ribozyme fitness (log ratio)": -4.01
  },
  {
    "variantSpec": "U9A G71A C73A C85A U116A",
    "polymerase ribozyme fitness (log ratio)": -3.81
  },
  {
    "variantSpec": "C8G C13U C40G C124G",
    "polymerase ribozyme fitness (log ratio)": 0.821
  },
  {
    "variantSpec": "A18U U116C G117A",
    "polymerase ribozyme fitness (log ratio)": -4.83
  },
  {
    "variantSpec": "C12U A16U G63C A105C C124G",
    "polymerase ribozyme fitness (log ratio)": -2.25
  },
  {
    "variantSpec": "C12U C15G G63U G120U",
    "polymerase ribozyme fitness (log ratio)": -0.846
  },
  {
    "variantSpec": "C73A G128C",
    "polymerase ribozyme fitness (log ratio)": -2.05
  },
  {
    "variantSpec": "G61C U87A C102A",
    "polymerase ribozyme fitness (log ratio)": -5.28
  },
  {
    "variantSpec": "G39U G77U C89U",
    "polymerase ribozyme fitness (log ratio)": -1.38
  },
  {
    "variantSpec": "C13G G42U C53A U87C C88U A121C C123A",
    "polymerase ribozyme fitness (log ratio)": -0.648
  },
  {
    "variantSpec": "G63A A105G C124G",
    "polymerase ribozyme fitness (log ratio)": -2.8
  },
  {
    "variantSpec": "U78C C88G",
    "polymerase ribozyme fitness (log ratio)": -0.636
  },
  {
    "variantSpec": "C13A C62U C89A",
    "polymerase ribozyme fitness (log ratio)": -3.31
  },
  {
    "variantSpec": "A41U C73G A90C C114U G128A",
    "polymerase ribozyme fitness (log ratio)": -5.13
  },
  {
    "variantSpec": "G77U C88G",
    "polymerase ribozyme fitness (log ratio)": -1.02
  },
  {
    "variantSpec": "U78G U96A C124G",
    "polymerase ribozyme fitness (log ratio)": 1.43
  },
  {
    "variantSpec": "A6C U30G G63A A91U A100G C104G U109G",
    "polymerase ribozyme fitness (log ratio)": -5.44
  }
]
